Tested on: NCI-H522 lung
runDescription: NCI tumour cell line growth inhibition, 48 h

- compound: "OCCCCCNc1c2ccccc2nc2ccccc12"
  scaleUnit: "µM"
  resultModifier: "="
  TGI: 10.2
- compound: "CCCCCCCCCCCCCCCCCCNc1ccn(C2OC(COP(=O)(O)OCC3OC(n4ccc(NC(=O)CCCCCCCCCCCCCCCCC)nc4=O)C(OC(C)=O)C3OC(C)=O)C(OC(C)=O)C2OC(C)=O)c(=O)n1 (stereo not drawn)"
  scaleUnit: "µM"
  resultModifier: ">"
  TGI: 100
- compound: "O=C1OCc2c1cc1ccc(O)c(OC3OC(CO)C(O)C(O)C3O)c1c2-c1ccc2c(c1)OCO2 (stereo not drawn)"
  scaleUnit: "µM"
  resultModifier: "="
  TGI: 59.9
- compound: "N=C1CSC2=NC3=C(CCC/C3=C\\c3ccccc3)C(c3ccccc3)N12 (stereo not drawn)"
  scaleUnit: "µM"
  resultModifier: "="
  TGI: 9.71
- compound: "C[N+]1=C2[B-](C(C)(C)C)=[N+](C(C)(C)C)[B-]2(C(C)(C)C)[N+](C)=C2[B-](C(C)(C)C)=[N+](C(C)(C)C)[B-]21C(C)(C)C (stereo not drawn)"
  scaleUnit: "µM"
  resultModifier: ">"
  TGI: 100
- compound: "O=C(NCCOCCOCCNc1cccc2c1C(=O)N(C1CCCNC1=O)C2=O)c1cc2c(o1)C(=O)c1ccccc1C2=O (stereo not drawn)"
  scaleUnit: "µM"
  resultModifier: "="
  TGI: 4.77
- compound: "S=C(N/N=C\\C=N/NC(=S)N1CCCCC1)N1CCCCC1"
  scaleUnit: "µM"
  resultModifier: ">"
  TGI: 100
- compound: "CN(C)CCCOC(=O)C(c1ccccc1)C1(O)CCSCC1 (stereo not drawn)"
  scaleUnit: "µM"
  resultModifier: ">"
  TGI: 100
